Each record here notes measured GI50.
Tested on: KM-20L2
experimental-protocol: NCI tumour cell line growth inhibition, 48 h
Calls of active or inactive are those of the source. No stated cut-off is given here; in the data, active = GI50 up to about 1.1 µM and inactive = higher.

[
  {
    "compound": "Cc1cc(C)c(C(=O)c2no[n+]([O-])c2C(=O)c2c(C)cc(C)c(Br)c2C)c(C)c1Br",
    "GI50": "16.2 µM (inactive)"
  },
  {
    "compound": "CS(=O)(=O)NNS(=O)(=O)c1ccc(Br)cc1",
    "GI50": "> 100 µM (inactive)"
  },
  {
    "compound": "COC(=O)CCC(=O)Nc1cc(Cl)ccc1Cl",
    "GI50": "> 100 µM (inactive)"
  }
]

Inquiry: I have this compound here, OC12c3ccccc3C1(N1CCOCC1)CCCCC21OCCCO1 (stereo unspecified) , and I need its recorded GI50.
Reply text: > 100 µM (inactive)

Inquiry: I have this compound here, C(=C1\CCC/C(=C/c2ccccc2)C1=NNc1ccccc1)/c1ccccc1 , and I need its recorded GI50.
Reply text: > 100 µM (inactive)

Inquiry: I have this compound here, CCOC(=O)C(=Cc1ccc(Oc2ccccc2)cc1)C(=O)OCC , and I need its recorded GI50.
Reply text: 4.65 µM (inactive)

====

Each record here notes measured GI50.
System: MDA-N
experimental-protocol: NCI tumour cell line growth inhibition, 48 h
Active and inactive are the calls of the source. No stated cut-off is given here; in the data, active = GI50 up to about 1.1 µM and inactive = higher.

Inquiry: Form field - read-out: GI50; system: MDA-N; submitted item: O=c1ccn(C2OC(CO)C(O)C2[Se]c2ccccc2)c(=O)[nH]1 (stereo unspecified)
Reply text: > 100 µM (inactive)

Inquiry: Form field - read-out: GI50; system: MDA-N; submitted item: NC(=O)c1nnsc1NC=O
Reply text: > 100 µM (inactive)

Inquiry: Form field - read-out: GI50; system: MDA-N; submitted item: Cc1ccc(NC(=O)C(=O)CC(=O)c2sc(Nc3c(C)cccc3C)nc2C)cc1C
Reply text: > 100 µM (inactive)

Inquiry: Form field - read-out: GI50; system: MDA-N; submitted item: CCOC(=O)c1nnc2c(C(=O)OCC)c3ccccc3n2c1N
Reply text: 4.36 µM (inactive)

Inquiry: Form field - read-out: GI50; system: MDA-N; submitted item: O=C(OCc1ccccc1[N+](=O)[O-])N1c2ccccc2[C@@]23O[C@]24CCC[C@H]3C#C/C=C\C#C[C@H]14
Reply text: > 100 µM (inactive)

Inquiry: Form field - read-out: GI50; system: MDA-N; submitted item: O=S(=O)(O)c1c(Cl)cc(O)c2ncccc12
Reply text: > 100 µM (inactive)

====

Test system: BT-549
experimental-protocol: NCI tumour cell line growth inhibition, 48 h
Activity calls are given as the source filed them. No stated cut-off is given here; in the data, active = GI50 up to about 1.1 µM and inactive = higher.
result-type: GI50

Worked examples, 8 compounds total:
[
  {
    "compound": "COc1cc2c(c3c1c(=O)c1ccccc1n3C)C=CC1(CCCCC1)O2",
    "GI50": "4.84 µM (inactive)"
  },
  {
    "compound": "CCN(CC)CCC(=O)c1ccc(Oc2ccc(F)cc2)cc1",
    "GI50": "18.3 µM (inactive)"
  },
  {
    "compound": "N#Cc1c(N2CCOCC2)[nH]c(=O)c(C(c2c(Cl)cccc2Cl)c2c(O)c(C#N)c(N3CCOCC3)[nH]c2=O)c1O",
    "GI50": "17.6 µM (inactive)"
  },
  {
    "compound": "O=C1OCC2=C1C(c1ccc(Cl)cc1)c1cc3c(cc1O2)OCO3 (centres undefined)",
    "GI50": "3.37 µM (inactive)"
  },
  {
    "compound": "COC(=O)CC(C#N)(OP1(=O)OC(c2ccccc2)C(C)N1C)c1ccccc1 (centres undefined)",
    "GI50": "36.2 µM (inactive)"
  },
  {
    "compound": "CC1=NN(c2nc(N)nc(/C(C#N)=C/c3cccn3-c3cc(Cl)cc(Cl)c3)n2)C(C)(C)C1",
    "GI50": "> 100 µM (inactive)"
  },
  {
    "compound": "O=C(OCc1ccccc1[N+](=O)[O-])N1c2ccccc2[C@@]23O[C@]24CCC[C@H]3C#C/C=C\\C#C[C@H]14",
    "GI50": "49.5 µM (inactive)"
  },
  {
    "compound": "COc1ccc(-c2coc3c4c(ccc3c2=O)OCO4)cc1OC",
    "GI50": "14.9 µM (inactive)"
  }
]

Okay, now this compound:
Inquiry: I have this compound here, C/C(Cl)=N/OC(=O)Nc1ccc(F)c([N+](=O)[O-])c1 , and I need its recorded GI50.
Reply text: 14.1 µM (inactive)

====

Test system: MOLT-4
experimental-protocol: NCI tumour cell line growth inhibition, 48 h
The source made the active and inactive calls. No stated cut-off is given here; in the data, active = GI50 up to about 1.1 µM and inactive = higher.
Can you answer with just one of these options? true (1) for active, false (0) for inactive

Worked examples follow.
[
  {
    "compound": "CC(=O)OC(C)(C)[C@@H]1CC[C@]2(C)/C=C/[C@H](C)C[C@@H](O)C3=C(C)C[C@@H](O3)C12 (stereo partly specified)",
    "discrete-label": "false (0)"
  },
  {
    "compound": "N#Cc1c(=O)c2ccccc2n2c1[nH]c1ccccc12",
    "discrete-label": "false (0)"
  }
]

Now, please, on to the next compound.
Inquiry: Test call for this compound, please: COC1=C(N2CC2)C(=O)c2nc3n(c2C1=O)CCC3
Reply text: true (1)

====

Test system: SK-OV-3
experimental-protocol: NCI tumour cell line growth inhibition, 48 h
Calls of active or inactive are those of the source. No stated cut-off is given here; in the data, active = GI50 up to about 1.1 µM and inactive = higher.
Each record here notes measured GI50.

Worked examples, 5 molecules total:
[
  {
    "molecule": "C=CCC(N(C)C(=O)[C@H](Cc1ccccc1)NC(=O)OCc1ccccc1)P(=O)(Oc1ccccc1)Oc1ccccc1 (stereo not given in full)",
    "measured": "> 100 µM (inactive)"
  },
  {
    "molecule": "CC1(C)COC(c2cccc(C(=O)c3ccccc3)c2)=N1",
    "measured": "> 100 µM (inactive)"
  },
  {
    "molecule": "C(=N\\CCCN1CCN(CCC/N=C/c2cccc3ccccc23)CC1)/c1cccc2ccccc12",
    "measured": "> 100 µM (inactive)"
  },
  {
    "molecule": "Cc1cc2c(c(C(N)=O)c1C)-c1cccc(F)c1C2=O",
    "measured": "> 100 µM (inactive)"
  },
  {
    "molecule": "Cc1cc(C)nc(NS(=O)(=O)c2ccc(Nc3c4ccccc4nc4c(C(=O)NC(CO)(CO)CO)cccc34)cc2)n1",
    "measured": "31.9 µM (inactive)"
  }
]

Inquiry: I have this molecule here, CC(C)c1ccc2nc3ccc(C(=O)NCCN(C)C)cn3c(=O)c2c1 , and I need its recorded GI50.
Reply text: 17.5 µM (inactive)

Inquiry: I have this molecule here, COc1ccc(/N=N/c2c(C)c(C#N)c(=S)n(C3OC(COC(C)=O)C(OC(C)=O)C(OC(C)=O)C3OC(C)=O)c2C)cc1 (stereo not given) , and I need its recorded GI50.
Reply text: 54.5 µM (inactive)

Inquiry: I have this molecule here, C=CCN1CCC(OC(=O)C(O)(/C=C\CC)C2CCCC2)CC1 (stereo not given) , and I need its recorded GI50.
Reply text: > 100 µM (inactive)

Inquiry: I have this molecule here, CN1C(=O)CC2(C)c3cc(C=O)ccc3N(C)C12 (stereo not given) , and I need its recorded GI50.
Reply text: > 100 µM (inactive)

Inquiry: I have this molecule here, c1cc2nsnc2c2c[nH]cc12 , and I need its recorded GI50.
Reply text: > 100 µM (inactive)

Inquiry: I have this molecule here, COC(=O)C(=O)C(C(=O)C(=O)Nc1ccccc1OC)c1nc2ccc([N+](=O)[O-])cc2nc1O (stereo not given) , and I need its recorded GI50.
Reply text: > 100 µM (inactive)

Inquiry: I have this molecule here, COC1=C(N2CC2)C(=O)c2nc3n(c2C1=O)CCC3 , and I need its recorded GI50.
Reply text: 1.18 µM (inactive)

Inquiry: I have this molecule here, O=C1Cc2nc(CO)c(CO)c(CO)c2CO1 , and I need its recorded GI50.
Reply text: > 100 µM (inactive)

Inquiry: I have this molecule here, CC(=O)O[C@H]1CC[C@@]2(C)C(=CC[C@H]3[C@@H]4C/C(=C\c5ccc(N(C)C)cc5)[C@H](OC(C)=O)[C@@]4(C)CC[C@@H]32)C1 , and I need its recorded GI50.
Reply text: 43.4 µM (inactive)

Inquiry: I have this molecule here, CCCCCC(=O)OC[n+]1ccc2c(C)c3[nH]c4ccccc4c3c(C)c2c1 , and I need its recorded GI50.
Reply text: 1.92 µM (inactive)

Inquiry: I have this molecule here, O=[N+]([O-])c1cc([As](Br)c2ccc(O)c([N+](=O)[O-])c2)ccc1O , and I need its recorded GI50.
Reply text: 3.39 µM (inactive)

Inquiry: I have this molecule here, O=C1CC(NC2CC(=O)c3c(Br)sc(Br)c32)c2c(Br)sc(Br)c21 (stereo not given) , and I need its recorded GI50.
Reply text: 17.8 µM (inactive)

Inquiry: I have this molecule here, COC(=O)CCC(=O)Nc1cc(Cl)ccc1Cl , and I need its recorded GI50.
Reply text: > 100 µM (inactive)

Inquiry: I have this molecule here, CS(=O)(=O)OCCN(CCOS(C)(=O)=O)c1ccc(C=O)cc1 , and I need its recorded GI50.
Reply text: 1.14 µM (inactive)

Inquiry: I have this molecule here, CC(C)CCC1(O)O[C@H]2C[C@H]3[C@@H]4CCC5CC(=O)C=C[C@]5(C)[C@H]4CC[C@]3(C)[C@H]2[C@@H]1C (stereo not given in full) , and I need its recorded GI50.
Reply text: 18.8 µM (inactive)
